experiment: Pharmacokinetic analysis of SYN120 tablets, single oral dose (Example 8); format: in vivo, human; settings: male, human, plasma, oral; 100 mg single dose, males; arithmetic mean
assayEndpoint: Cmax (ng/mL)
Write the answer as a number in ng/mL, unit excluded.

INPUT: Look up Cmax for this compound: NC(=O)NC[C@@H]1CCCc2cc(S(=O)(=O)c3cccc(F)c3)ccc21 [SYN120]
OUTPUT: 623

====

test: Pharmacokinetic analysis of SYN120 tablets, multiple dose once daily (Example 9); format: in vivo, human; conditions: both sexes, human, plasma, oral, 100 mg, Day 1, 100 mg QD; geometric mean; read-out: AUC0-last
assayEndpoint: AUC(0-t)
Please don't drop the unit; write it after the number.

INPUT: Record request: AUC(0-t) value, item NC(=O)NC[C@@H]1CCCc2cc(S(=O)(=O)c3cccc(F)c3)ccc21 [SYN120]
OUTPUT: 7780 ng·h/mL

Value source: patent US10973784B2
